- Tested System: T1, human recombinant lipoxin A4 receptor (ALXR/FPRL1) expressed on HEK293 cells (human, UniProt P25090 1-351)
- T1 sequence (looked up): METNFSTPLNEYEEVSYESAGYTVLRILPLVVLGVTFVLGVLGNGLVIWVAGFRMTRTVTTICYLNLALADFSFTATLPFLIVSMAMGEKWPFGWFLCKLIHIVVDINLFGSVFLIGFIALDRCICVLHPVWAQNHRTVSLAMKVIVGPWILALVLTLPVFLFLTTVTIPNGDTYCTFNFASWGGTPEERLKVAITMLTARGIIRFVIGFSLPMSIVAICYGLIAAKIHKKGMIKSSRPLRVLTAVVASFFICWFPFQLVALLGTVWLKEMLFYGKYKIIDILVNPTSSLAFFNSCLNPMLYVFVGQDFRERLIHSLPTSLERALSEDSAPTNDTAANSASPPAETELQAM
- Protocol Notes: radioligand binding
Ends that are not written are not given here. * marks the point of attachment. 125I = [125I]*
Reported Metric: Kd

>>> value_observed("Ac-AMVSEFLKQAWFIENEEQEY(125I)VQTVK [[125I-Tyr]Ac2-26 peptide (radio-iodinated ANXA1-derived peptide Ac2-26)]")
"~0.9 µM"

Value source: paper PMC2777269
